- targetOrTestSystem: thrombin (Homo sapiens)
- Construct: consists of two polypeptide chains of 36 (light chain) and 259 amino acid
- testSummary: Determination of Kis of purified thrombin inhibitors (IC50, Cheng-Prusoff)
- Assay type: biochemical
- cond: thrombin; replicate 1; Cheng-Prusoff; read-out: Ki (nM) Replicate 1
# Ki per entry
Report only the number, with the unit nM understood.

Here are 2 compounds together with their reported answers.
Query string: For CC(C)[C@@H]1NC(=O)CCSSCCNC(=O)[C@H](CNC(=O)c2ccc(Cl)s2)NC(=O)c2cccc(c2)CNC1=O [M3] , what is its reported Ki?
Result string: 134

Query string: For CC(C)[C@H]1NC(=O)CCSSCCNC(=O)[C@H](CNC(=O)c2ccc(Cl)s2)NC(=O)c2cccc(c2)CNC1=O [M1] , what is its reported Ki?
Result string: 45

Here is another compound to look at.
Query string: For O=C1CCSSCCNC(=O)C(CNC(=O)c2ccc(Cl)s2)NC(=O)c2cccc(c2)CNC(=O)C(Cc2ccccc2)N1 (stereo not drawn) [M2] , what is its reported Ki?
Result string: 210
